tested on: HOP-62 multicell spheroids with HUVEC/MSC, viability; assay: Anticancer human tumor HOP-62 cell line growth inhibition [KRAS2]; settings: second compound 0.316 µM; first compound 0.316 µM; hits give low values;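 further: viability read after a week of compound exposure; 100% = DMSO vehicle-treated spheroids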
readout: viability, T/C (%)
Report the figure in % without appending any unit label.

Study these solved cases before continuing.
compound | recorded.result
CC(C)NCC(C(=O)N1CCN(c2ncnc3c2C(C)CC3O)CC1)c1ccc(Cl)cc1 (stereo unspecified) + C=CC(=O)N1CCN(c2nc(=O)n(-c3c(C)ccnc3C(C)C)c3nc(-c4c(O)cccc4F)c(F)cc23)C(C)C1 | 28.2
CCNC(=O)CC1N=C(c2ccc(Cl)cc2)c2cc(OC)ccc2-n2c(C)nnc21 (stereo unspecified) + CC1OCC2(CCN(c3cnc(Sc4ccnc(N)c4Cl)c(N)n3)CC2)C1N | 40.9
COC(=O)c1ccc2c(C(=Nc3ccc(N(C)C(=O)CN4CCN(C)CC4)cc3)c3ccccc3)c(O)[nH]c2c1 + CNCc1ccccc1-c1csc(C(C)Nc2nc(C)nc3cc(OC)c(OC)cc23)c1 | 35.6
CC(C)NCC(C(=O)N1CCN(c2ncnc3c2C(C)CC3O)CC1)c1ccc(Cl)cc1 (stereo unspecified) + CC1OCC2(CCN(c3cnc(Sc4ccnc(N)c4Cl)c(N)n3)CC2)C1N | 43.4
CC1COCCN1c1cc(-c2ccnn2C)c2ccnc(-c3ccn[nH]3)c2n1 (stereo unspecified) + C=CC(=O)N1CCN(c2nc(OCC3CCCN3C)nc3c2CCN(c2cccc4cccc(C)c24)C3)CC1CC#N | 10.9

As a next step, examine the compound that follows.
// map COc1cc2nccc(Oc3ccc(NC(=O)C4(C(=O)Nc5ccc(F)cc5)CC4)cc3)c2cc1OC + CC1OCC2(CCN(c3cnc(Sc4ccnc(N)c4Cl)c(N)n3)CC2)C1N to recorded viability, T/C (system: HOP-62 multicell spheroids with HUVEC/MSC, viability) 73.4

###

tested on: HOP-62 multicell spheroids with HUVEC/MSC, viability; assay: Anticancer human tumor HOP-62 cell line growth inhibition [KRAS2]; conditions: compound 10 µM; active means viability on the fitted dose curve at most 10% of control; inactive means the rest;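 further: viability read after a week of compound exposure; 100% = DMSO vehicle-treated spheroids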
Returns: one label drawn from 1 (active), -1 (inactive)

compound | class.assignment
COc1cc(Nc2ncc3c(n2)-c2ccc(Cl)cc2C(c2c(F)cccc2OC)=NC3)ccc1C(=O)O | -1
O=C(c1cc(Cc2n[nH]c(=O)c3ccccc23)ccc1F)N1CCN(C(=O)C2CC2)CC1 | -1

# lookup: test call for Cn1nccc1Nc1nccc(-c2cc3c(s2)C(C)(C)N(CCN2CCOCC2)C3=O)n1 -1

Please give the result for CC1(C)CCC(CN2CCN(c3ccc(C(=O)NS(=O)(=O)c4ccc(NCC5CCOCC5)c([N+](=O)[O-])c4)c(Oc4cnc5[nH]ccc5c4)c3)CC2)=C(c2ccc(Cl)cc2)C1 too. -1

Please give the result for CNCc1ccccc1-c1csc(C(C)Nc2nc(C)nc3cc(OC)c(OC)cc23)c1 (configuration not stated) too. 1

Please give the result for CC(C)NCC(C(=O)N1CCN(c2ncnc3c2C(C)CC3O)CC1)c1ccc(Cl)cc1 (configuration not stated) too. -1

###

test system: HOP-62 multicell spheroids with HUVEC/MSC, viability; assay: Anticancer human tumor HOP-62 cell line growth inhibition [KRAS2]; settings: second compound 3.16 µM; first compound 0.01 µM; active means viability on the fitted dose curve at most 10% of control; inactive means the rest;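 further: viability read after a week of compound exposure; 100% = DMSO vehicle-treated spheroids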
Returns: one label drawn from class 1 for active, class 0 for inactive

# lookup: test call for CC(C)n1nc(-c2ccc3oc(N)nc3c2)c2c(N)ncnc21 + CC1OCC2(CCN(c3cnc(Sc4ccnc(N)c4Cl)c(N)n3)CC2)C1N class 1

Please give the result for CC(=O)Nc1cccc(-n2c(=O)n(C3CC3)c(=O)c3c(Nc4ccc(I)cc4F)n(C)c(=O)c(C)c32)c1 + CC1OCC2(CCN(c3cnc(Sc4ccnc(N)c4Cl)c(N)n3)CC2)C1N too. class 0

Please give the result for CCN1CCN(Cc2ccc(Nc3ncc(F)c(-c4cc(F)c5nc(C)n(C(C)C)c5c4)n3)nc2)CC1 + C=CC(=O)N1CCN(c2nc(=O)n(-c3c(C)ccnc3C(C)C)c3nc(-c4c(O)cccc4F)c(F)cc23)C(C)C1 too. class 0
